Target: T1, full-length VAR2CSA (FV2) recombinant protein, FCR3 (Plasmodium falciparum FCR3, UniProt Q6UDW7, strain)
T1 construct: VAR2CSA (PfEMP1 family), Plasmodium falciparum strain FCR3, full-length recombinant protein; also called FV2-FCR3; source: recombinant, purified, expressed as described in [33]
Experiment: ELISA; recombinant VAR2CSA protein or domain (50 nM in PBS) coated on MaxiSorp plates overnight at 4°C; Nb 50 nM in 1% skim milk in PBS, 90 min RT; detected with rabbit anti-camel and HRP anti-rabbit, OD 490 nm after 20 min
Conditions: both partners purified
Value Type: binding result

Nb05 (VHH, from an alpaca immunized with full-length VAR2CSA; pHEN6c vector; also called Nanobody 05; VHH; source: E. coli WK6, periplasmic extract, purified (HisTrap); not shown: His6, C-terminal, kept) VHH: QVQLQESGGGLVQPRGSLRLSCTASERDFGLVVMGWHRQAPGKQRELVAQIGTGGRTNYADSVKGRFTISIDAAKNTVYLQMNNLKPEDTAVYYCNAPLSGIWGQGTQVTVSS : binds
Nb10 (VHH, from an alpaca immunized with full-length VAR2CSA; pHEN6c vector; also called Nanobody 10; VHH; source: E. coli WK6, periplasmic extract, purified (HisTrap); not shown: His6, C-terminal, kept) VHH: QVQLQESGGGLVQAGGSLRLSCAASGRTFSSNLMGWLRQAPGKEREFVAAMSMSGGDTFYADSVKGRFTISRDNAKNMVHLQMNSLKPEDTAIYYCAAADVRLSAYEYDYWGQGTQVTVSS : binds
Nb03 (VHH, from an alpaca immunized with full-length VAR2CSA; pHEN6c vector; also called Nanobody 03; VHH; source: E. coli WK6, periplasmic extract, purified (HisTrap); not shown: His6, C-terminal, kept) VHH: QVQLQESGGGLVQAGGSLRLSCVVSGHTFSGYVMGWFRQAPGKEREFVSSISGYGGITDYADSVKGRFTMSRDNAKNTVYLRMNSLKPEDTAVYYCAVRRSGSSREYDYWGQGTQVTVSS : binds
Nb02 (VHH, from an alpaca immunized with full-length VAR2CSA; pHEN6c vector; also called Nanobody 02; VHH; source: E. coli WK6, periplasmic extract, purified (HisTrap); not shown: His6, C-terminal, kept) VHH: QVQLQESGGGLVQAGGSLRLSCAASGRTFSSYAMGWFRQAPGKEREFVAFISWSGGSTSYADSVKGRFTISRDNAKNTVYLQMNSLKPEDTAVYYCVASGSFEGEYDYWGQGTQVTVSS : binds
Nb01 (VHH, from an alpaca immunized with full-length VAR2CSA; pHEN6c vector; also called Nanobody 01; VHH; source: E. coli WK6, periplasmic extract, purified (HisTrap); not shown: His6, C-terminal, kept) VHH: QVQLQESGGGLVQAGGSLRLSCAASGRTFNSYVMGWFRQAPGKEREFVAAISWSGGNAYYADSVKGRFTISRDNAENTVYLLMNSLKPEDTAVYYCAAALTRLARNEYDYLGQGTQVTVSS : binds

**Query** // binding result lookup, key: Nb17 (VHH, from an alpaca immunized with full-length VAR2CSA; pHEN6c vector; also called Nanobody 17; VHH; source: E. coli WK6, periplasmic extract, purified (HisTrap); not shown: His6, C-terminal, kept) VHH: QVQLQESGGGLVQPGGSLRLSCAASGFTFSGSASWVRQAPGKELEWVSSISGFGGITDYADSVKGRFTISRDNSKNTLYLQNSLKPEDTAVYYCAKGRTGWTSSFLRGQGTQVTVSS
**Result** binds

**Query** // binding result lookup, key: Nb11 (VHH, from an alpaca immunized with full-length VAR2CSA; pHEN6c vector; also called Nanobody 11; VHH; source: E. coli WK6, periplasmic extract, purified (HisTrap); not shown: His6, C-terminal, kept) VHH: QVQLQESGGGLVQAGGSLRLSCAASGRTFSSYAMGWFRQAPGREREFVALISWSGGSTTYADSVKGRFTISRDNAQNTVYLQMNSLKPEDTAVYYCTAAGSFEGEYDYWGQGTQVTVSS
**Result** binds

**Query** // binding result lookup, key: Nb12 (VHH, from an alpaca immunized with full-length VAR2CSA; pHEN6c vector; also called Nanobody 12; VHH; source: E. coli WK6, periplasmic extract, purified (HisTrap); not shown: His6, C-terminal, kept) VHH: QVQLQESGGGLVQVGGSLRLSCAASGRTFSNYAMGWFRQAPGEEREFVAAISWSDNNTLYTDSVKGRFTISRDNAENTVYLQMNSLEPEDTAVYYCAAGRRPRLRVGLNEFDYWGQGTQVTVSS
**Result** binds

**Query** // binding result lookup, key: Nb09 (VHH, from an alpaca immunized with full-length VAR2CSA; pHEN6c vector; also called Nanobody 09; VHH; source: E. coli WK6, periplasmic extract, purified (HisTrap); not shown: His6, C-terminal, kept) VHH: QVQLQESGGGLVQAGGSLRLSCAASGRTFSNYGMGWFRQTPEKERDLLAAVTWSGGRTYYADSVKGRFTISRDNAKNTVYLQMNSLKPEDTAVYYCAAGELFYSDYGPEGEWDYWGQGTQVTVSS
**Result** binds
